# Tested on: K-562
# methodDescription: cells
# Type: cell-based
# statedConditions: Homo sapiens, K562, read-out: growth inhibition % (GI%)
testReadout: inhibition at 10 µM (%)
Provide only the numeric value, understood in %.

Example results:
[[record]]
compound = "O=C(CSc1nc2ccccc2c(=O)n1-c1ccc(Cl)cc1)NN=Cc1ccc(N2CCCCC2)cc1 [6j]"
measvalue = 26.4

[[record]]
compound = "O=C(CSc1nc2ccccc2c(=O)n1-c1ccccc1)NN=Cc1ccc(Oc2ccc(Br)cc2)cc1 [6b]"
measvalue = 37.5

[[record]]
compound = "O=C(CSc1nc2ccccc2c(=O)n1-c1ccc(Cl)cc1)NN=Cc1ccc(Oc2ccc(Cl)cc2)cc1 [6d]"
measvalue = 77


Return reported inhibition at 10 µM. Input compound: O=C(CSc1nc2ccccc2c(=O)n1-c1ccccc1)NN=Cc1ccc(Oc2ccc(Cl)cc2)cc1 [6a]
38.8

Find the measured inhibition at 10 µM of COc1ccc(Oc2ccc(C=NNC(=O)CSc3nc4ccccc4c(=O)n3-c3ccc(Cl)cc3)cc2)cc1 [6f] and report it.
41.6

----------
# Tested on: SNB-75
# methodDescription: cells
# Type: cell-based
# statedConditions: Homo sapiens, SNB-75, read-out: growth inhibition % (GI%)
# inhibition at 10 µM per entry
The answer is to be given in %; state only the numeric part.

[[record]]
molecule = "O=C(CSc1nc2ccccc2c(=O)n1-c1ccc(Cl)cc1)NN=Cc1ccc(Oc2ccc(Cl)cc2)cc1 [6d]"
measvalue = 42.1

[[record]]
molecule = "O=C(CSc1nc2ccccc2c(=O)n1-c1ccc(Cl)cc1)NN=Cc1ccc(N2CCCCC2)cc1 [6j]"
measvalue = 20.1

[[record]]
molecule = "O=C(CSc1nc2ccccc2c(=O)n1-c1ccccc1)NN=Cc1ccc(Oc2ccc(Cl)cc2)cc1 [6a]"
measvalue = 39.9

[[record]]
molecule = "O=C(CSc1nc2ccccc2c(=O)n1-c1ccccc1)NN=Cc1ccc(Oc2ccc(Br)cc2)cc1 [6b]"
measvalue = 42.2


Here is another molecule to look at.
In one line, give reported inhibition at 10 µM of the entry COc1ccc(Oc2ccc(C=NNC(=O)CSc3nc4ccccc4c(=O)n3-c3ccc(Cl)cc3)cc2)cc1 [6f] .
58.4

----------
compounds and their reported inhibition at 10 µM
# Test system: K-562
# methodDescription: cells
# Assay type: cell-based
# statedConditions: Homo sapiens, K562; K-562; 10 μM; read-out: growth inhibition % (GI%)

Examples with answers:
[[record]]
compound = "O=C(CSc1nc2ccccc2c(=O)n1-c1ccccc1)NN=Cc1ccc(N2CCCCC2)cc1 [6g]"
testreadout = "inhibition at 10 µM"
measvalue = "26.8%"

[[record]]
compound = "O=C(CSc1nc2ccccc2c(=O)n1-c1ccc(Cl)cc1)NN=Cc1ccc(N2CCOCC2)cc1 [6k]"
testreadout = "inhibition at 10 µM"
measvalue = "< 15%"


# input for lookup
Supply inhibition at 10 µM value. Item: O=C(CSc1nc2ccccc2c(=O)n1-c1ccc(Cl)cc1)NN=Cc1ccc(Oc2ccc(Br)cc2)cc1 [6e]
< 15%

----------
Quick record: IC50, EGFR (Homo sapiens).
Please state the figure in nM; there is no need to write the unit.

[[record]]
recordsmiles = "O=C(CSc1nc2ccccc2c(=O)n1-c1ccccc1)NN=Cc1ccc(Oc2ccc(Br)cc2)cc1"
measvalue = 487

[[record]]
recordsmiles = "O=C(CSc1nc2ccccc2c(=O)n1-c1ccccc1)NN=Cc1ccc(Oc2ccc(Cl)cc2)cc1"
measvalue = 202

[[record]]
recordsmiles = "O=C(CSc1nc2ccccc2c(=O)n1-c1ccc(Cl)cc1)NN=Cc1ccc(N2CCCCC2)cc1"
measvalue = 478


State its IC50: "O=C(CSc1nc2ccccc2c(=O)n1-c1ccc(Cl)cc1)NN=Cc1ccc(Oc2ccc(Cl)cc2)cc1"
69

Give recorded IC50. "COc1ccc(Oc2ccc(C=NNC(=O)CSc3nc4ccccc4c(=O)n3-c3ccc(Cl)cc3)cc2)cc1"
133
